- Tested on: A498 renal
- procedureText: NCI-60 one-dose screen, 48 h (100 = growth as untreated, 0 = no growth, -100 = all killed)
- conditions: 10 µM unless noted
The panel holds about 83,000 compounds, 20% with a hit somewhere; the sample as a whole holds those more often. Calls of active or inactive are those of the source. Rule for the calls: active = growth percent below 10; inactive = the rest.

{"recordSmiles": "CC1(C)CC[C@]2(C(=O)O)CC[C@]3(C)C(=CC[C@@H]4[C@@]5(C)CC[C@H](NOCCCN)C(C)(C)[C@@H]5CC[C@]43C)[C@@H]2C1", "growth": "110% (inactive)"}
{"recordSmiles": "C/C(=N\\NC(=O)/C=C/CC(=O)O)c1nnn(-c2ccc([N+](=O)[O-])cc2)c1C", "growth": "110% (inactive)"}
{"recordSmiles": "Cc1ccc(C(=O)Nc2ccc(CNCCN3CCOCC3)c(C(F)(F)F)c2)cc1C#Cc1cnc2cccnn12", "growth": "-1.13% (active)"}
{"recordSmiles": "COC(=O)c1ccc(NC2=C(Cl)C(=O)C(C)=C(C)C2=O)cc1", "growth": "58.6% (inactive)"}
{"recordSmiles": "O=C(/C=C/c1ccc(F)cc1)Nc1cccc2cccnc12", "growth": "114% (inactive)"}
{"recordSmiles": "Cc1ccc2c(n1)C(=O)C(Cl)=C(Nc1cc(C(F)(F)F)cc(C(F)(F)F)c1)C2=O", "growth": "80.4% (inactive)"}
{"recordSmiles": "CCc1cc(O)ccc1Nc1cc(-c2ccc(-n3cccn3)cc2)[nH]n1", "growth": "92.9% (inactive)"}
{"recordSmiles": "COc1ccc(-c2nc(C#N)c(N3CCC(S(=O)(=O)N4CCOCC4)CC3)o2)cc1", "growth": "100% (inactive)"}
{"recordSmiles": "O=C(CSc1nc2ccccc2c(=O)n1-c1ccc(Cl)cc1)N/N=C/c1ccc(Oc2ccc(Cl)cc2)cc1", "growth": "-42.3% (active)"}
